Each entry below carries its recorded Test H rating (disease control).
- Test system: Puccinia recondita f. sp. tritici
- Procedure Summary: Test H: wheat leaf rust, preventive spray on wheat seedlings, visual disease rating
- Conditions: wheat leaf rust, sprayed the day before inoculation; 100 = 100% disease control, 0 = no disease control
Write the value in % as a bare number.

Previously resolved entries follow.
{"columns": ["Molecule Smiles", "Test H rating (disease control), %"],
 "data": [
  ["Cc1nn(C)c(Nc2c(Cl)cc(Br)cc2Cl)c1-c1ccc(F)cc1Br", 91],
  ["COc1cc(F)c(Nc2c(-c3c(F)cccc3Cl)c(C)nn2C)c(F)c1", 100],
  ["COc1cc(F)c(Nc2c(-c3ccc(F)cc3F)c(C)nn2C)c(F)c1", 94],
  ["Cc1nn(C)c(Nc2c(F)cc(F)cc2F)c1-c1ccc(Cl)cc1Cl", 99],
  ["Cc1nn(C)c(Nc2c(F)cccc2F)c1-c1ccc(F)cc1F", 99]
]}

Puccinia recondita f. sp. tritici data for Cc1nn(C)c(Oc2ccc(C#N)cc2Cl)c1-c1ccc(Cl)cc1Cl ; its Test H rating (disease control): 96

Puccinia recondita f. sp. tritici data for COc1ccc(-c2c(C)nn(C)c2Oc2ccc(C#N)cc2Cl)c(Cl)c1 ; its Test H rating (disease control): 99

Puccinia recondita f. sp. tritici data for Cc1nn(C)c(Nc2ccc(F)cc2F)c1-c1ccc(F)cc1F ; its Test H rating (disease control): 97

Puccinia recondita f. sp. tritici data for COc1cc(Cl)c(Nc2c(-c3ccc(F)cc3Cl)c(C)nn2C)c(Cl)c1 ; its Test H rating (disease control): 99

###

- Tested on: Phytophthora infestans
- Procedure Summary: whole plant or invertebrate
- Format: in vivo
- Conditions: tomato late blight, preventive spray; 100 = 100% disease control; rating without asterisk
Readout Label: Test C rating (% disease control) (%)
Write the value in % as a bare number.

{"columns": ["Molecule Smiles", "Recorded Result"],
 "data": [
  ["CCOc1cc(F)c(-c2c(C)nn(C)c2Nc2c(F)cc(Cl)cc2F)c(F)c1", 68]
]}

The value of Test C rating (% disease control) measured for the molecule CCOc1ccc(-c2c(C)nn(C)c2Nc2c(F)cc(Cl)cc2F)c(F)c1 turned out to be 0

The value of Test C rating (% disease control) measured for the molecule Cc1nn(C)c(Nc2c(F)cccc2Cl)c1-c1ccc(F)cc1F turned out to be 0

The value of Test C rating (% disease control) measured for the molecule COc1ccc(-c2c(C)nn(C)c2Nc2c(F)cc(Cl)cc2F)c(F)c1 turned out to be 0

###

Each entry below carries its recorded Test B rating (disease control).
- System: Alternaria solani
- Procedure Summary: Test B: tomato early blight, preventive spray on tomato seedlings, visual disease rating
- Conditions: tomato early blight; 100 = 100% disease control, 0 = no disease control relative to the controls
Write the value in % as a bare number.

Previously resolved entries follow.
{"columns": ["Compound", "Readout Label", "U", "Recorded Result"],
 "data": [
  ["COc1ccc(-c2c(C)nn(C)c2Nc2ccc(Cl)cc2Cl)c(Cl)c1 [compound 77]", "Test B rating (disease control)", "%", 98],
  ["Cc1nn(C)c(Nc2c(F)cc(Cl)cc2Cl)c1-c1ccc(F)cc1F [Compound 161]", "Test B rating (disease control)", "%", 99],
  ["Cc1nn(C)c(Oc2c(F)cc(C#N)cc2F)c1-c1ccccc1Cl [compound 75]", "Test B rating (disease control)", "%", 99],
  ["COc1cc(F)c(Nc2c(-c3ccc(F)cc3F)c(C)nn2C)c(F)c1 [compound 12]", "Test B rating (disease control)", "%", 0],
  ["Cc1nn(C)c(Nc2c(Cl)cc(Cl)cc2Cl)c1-c1ccc(F)cc1Br [compound 174]", "Test B rating (disease control)", "%", 0]
]}

The value of Test B rating (disease control) measured for the compound COc1ccc(Nc2c(-c3ccc(F)cc3Br)c(C)nn2C)c(Cl)c1 [compound 103] turned out to be 83

The value of Test B rating (disease control) measured for the compound COc1ccc(Nc2c(-c3ccc(F)cc3F)c(C)nn2C)c(Cl)c1 [compound 66] turned out to be 37

The value of Test B rating (disease control) measured for the compound COc1cc(F)c(-c2c(C)nn(C)c2Oc2c(F)cc(C#N)cc2F)c(F)c1 [compound 38] turned out to be 94

The value of Test B rating (disease control) measured for the compound CCOc1cc(F)c(-c2c(C)nn(C)c2Nc2ccc(F)cc2F)c(F)c1 [compound 39] turned out to be 99

The value of Test B rating (disease control) measured for the compound Cc1nn(C)c(Nc2c(F)cc(F)cc2F)c1-c1ccc(Cl)cc1Cl [compound 18] turned out to be 98
